# ASSAYED_SYSTEM: human serum albumin (HSA) (Homo sapiens)
# Sequence (P02768 25-609): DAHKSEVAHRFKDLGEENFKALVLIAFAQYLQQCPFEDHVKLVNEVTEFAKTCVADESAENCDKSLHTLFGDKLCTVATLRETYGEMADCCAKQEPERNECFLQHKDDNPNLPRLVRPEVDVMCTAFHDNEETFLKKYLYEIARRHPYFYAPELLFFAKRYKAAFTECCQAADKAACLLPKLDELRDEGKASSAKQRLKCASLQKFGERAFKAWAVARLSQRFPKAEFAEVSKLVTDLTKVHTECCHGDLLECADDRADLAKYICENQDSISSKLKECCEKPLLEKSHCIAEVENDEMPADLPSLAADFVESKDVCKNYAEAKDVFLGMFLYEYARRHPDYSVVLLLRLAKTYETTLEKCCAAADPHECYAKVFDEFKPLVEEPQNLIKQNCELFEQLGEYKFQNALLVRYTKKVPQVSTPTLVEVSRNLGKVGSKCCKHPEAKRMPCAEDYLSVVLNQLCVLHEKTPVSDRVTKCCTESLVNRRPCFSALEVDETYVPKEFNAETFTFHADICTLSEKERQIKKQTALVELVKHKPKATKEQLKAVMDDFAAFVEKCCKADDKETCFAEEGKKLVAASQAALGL
# TEST_METHOD_NOTES: Paclitaxel binding to HSA: ultrafiltration (10 kDa), free and total Ptx by ELISA and/or reverse-phase HPLC
# Design: purchased Desert Biologicals, Phoenix, Ariz
# STATED_CONDITIONS: non-defatted human serum albumin (HSA) solution, pH 7.1
MEASUREMENT_TYPE: recovery at 50 μg/mL (%)
Provide only the numeric value, understood in %.

Checklist item: recovery at 50 μg/mL tested on human serum albumin (HSA) (Homo sapiens), entry CC(=O)O[C@H]1C(=O)[C@@]2(C)[C@H]([C@H](OC(=O)c3ccccc3)[C@]3(O)C[C@H](OC(=O)[C@H](O)[C@@H](NC(=O)c4ccccc4)c4ccccc4)C(C)=C1C3(C)C)[C@]1(OC(C)=O)CO[C@@H]1C[C@@H]2O , value? 89

----------
# ASSAYED_SYSTEM: human serum albumin (HSA) (Homo sapiens)
# TEST_METHOD_NOTES: Paclitaxel binding to HSA: ultrafiltration (10 kDa), free and total Ptx by ELISA and/or reverse-phase HPLC
# Parameters: purchased Desert Biologicals, Phoenix, Ariz
# STATED_CONDITIONS: defatted human serum albumin (HSA) solution, pH 7.1
MEASUREMENT_TYPE: recovery at 50 μg/mL (%)
Provide only the numeric value, understood in %.

Query (molecule): CC(=O)O[C@H]1C(=O)[C@@]2(C)[C@H]([C@H](OC(=O)c3ccccc3)[C@]3(O)C[C@H](OC(=O)[C@H](O)[C@@H](NC(=O)c4ccccc4)c4ccccc4)C(C)=C1C3(C)C)[C@]1(OC(C)=O)CO[C@@H]1C[C@@H]2O ; field requested: recovery at 50 μg/mL 73
